- System: Escherichia coli
- test_summary: Antimicrobial activity against Escherichia coli Ec7 expressing SHV-12 IRT-6 gene
- Assay type: functional
# key: entry, value: log10 of MIC
Parameter value (number): base-10 log of MIC in µg/mL.

Example entries and their recorded answers appear below.
compound	log10 of MIC
C[C@@H](O)[C@H]1C(=O)N2C(C(=O)O)=C(SCCNC=N)C[C@H]12 [IMIPENEM ANHYDROUS]	-0.30
CO[C@@]1(NC(=O)Cc2cccs2)C(=O)N2C(C(=O)O)=C(COC(N)=O)CS[C@@H]21 [CEFOXITIN]	1.81
CC(C)(O/N=C(\C(=O)N[C@@H]1C(=O)N2C(C(=O)[O-])=C(C[n+]3ccccc3)CS[C@H]12)c1csc(N)n1)C(=O)O [CEFTAZIDIME]	2.11
CO/N=C(\C(=O)N[C@@H]1C(=O)N2C(C(=O)O)=C(COC(C)=O)CS[C@H]12)c1csc(N)n1 [CEFOTAXIME]	1.20

Now consider the entry below.
Entry C[C@@H](O)[C@H]1C(=O)N2C(C(=O)O)=C(S[C@@H]3CN[C@H](C(=O)Nc4cccc(C(=O)O)c4)C3)[C@H](C)[C@H]12 [ERTAPENEM] ; log10 of MIC = -0.70

----------
# key: entry, value: MIC
- Tested on: Escherichia coli
- test_summary: Antimicrobial activity against Escherichia coli Ec2-a containing pEc1-C plasmid expressing CTX-M-15 OXA-1 gene
- Type: functional

Example entries and their recorded answers appear below.
compound	MIC
CO/N=C(\C(=O)N[C@@H]1C(=O)N2C(C(=O)O)=C(COC(C)=O)CS[C@H]12)c1csc(N)n1	256 µg/mL
C[C@@H](O)[C@H]1C(=O)N2C(C(=O)O)=C(S[C@@H]3CN[C@H](C(=O)Nc4cccc(C(=O)O)c4)C3)[C@H](C)[C@H]12	0.2 µg/mL
CO[C@@]1(NC(=O)Cc2cccs2)C(=O)N2C(C(=O)O)=C(COC(N)=O)CS[C@@H]21	8 µg/mL
CC(C)(O/N=C(\C(=O)N[C@@H]1C(=O)N2C(C(=O)[O-])=C(C[n+]3ccccc3)CS[C@H]12)c1csc(N)n1)C(=O)O	256 µg/mL

Entry C[C@@H](O)[C@H]1C(=O)N2C(C(=O)O)=C(SCCNC=N)C[C@H]12 [IMIPENEM ANHYDROUS] ; MIC = 0.5 µg/mL

----------
# key: entry, value: log10 of MIC
- Tested on: Klebsiella pneumoniae
- test_summary: Antimicrobial activity against Klebsiella pneumoniae Kp3 expressing SHV-2a TEM-1 gene
- Type: functional
Parameter value (number): base-10 log of MIC in µg/mL.

Example entries and their recorded answers appear below.
molecule	log10 of MIC
C[C@@H](O)[C@H]1C(=O)N2C(C(=O)O)=C(S[C@@H]3CN[C@H](C(=O)Nc4cccc(C(=O)O)c4)C3)[C@H](C)[C@H]12 [ERTAPENEM]	-1.70
CC(C)(O/N=C(\C(=O)N[C@@H]1C(=O)N2C(C(=O)[O-])=C(C[n+]3ccccc3)CS[C@H]12)c1csc(N)n1)C(=O)O [CEFTAZIDIME]	2.41
CO/N=C(\C(=O)N[C@@H]1C(=O)N2C(C(=O)O)=C(COC(C)=O)CS[C@H]12)c1csc(N)n1 [CEFOTAXIME]	0.30
CO[C@@]1(NC(=O)Cc2cccs2)C(=O)N2C(C(=O)O)=C(COC(N)=O)CS[C@@H]21 [CEFOXITIN]	0.60

Entry C[C@@H](O)[C@H]1C(=O)N2C(C(=O)O)=C(SCCNC=N)C[C@H]12 [IMIPENEM ANHYDROUS] ; log10 of MIC = 0.00
